B1: Proto-oncogene vav, residues 782 to 842; numbered along this chain, P15498 (parent)
chain: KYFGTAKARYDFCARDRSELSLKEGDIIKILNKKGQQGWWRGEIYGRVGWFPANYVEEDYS

Variants of: B1
experimentDescription: abundance fitness (aPCA) (normalised: wild type 0, dead -1); higher = more abundant; growth selection in yeast, the domain comes from the species named
conditionLabel: Homo sapiens
Everything with abundance fitness lower than -0.1 is class 0; everything else, including exactly -0.1, is class 1.

- sequenceInput: "KYFGTAKARYDFCARDRSELSLKEGDIIKILNKKGQQGWWRGEIYNRVGWFPANYVEEDYS [G46N]"
  classAssignment: "class 0"
- sequenceInput: "KYFGTAKARYDFCARDRSELSLKPGDIIKILNKKGQQGWWRGEIYGRVGWFPANYVEEDYS [E24P]"
  classAssignment: "class 0"
- sequenceInput: "KYFGTAKARKDFCARDRSELSLKEGDIIKILNKKGQQGWWRGEIYGRVGWFPANYVEEDYS [Y10K]"
  classAssignment: "class 1"
- sequenceInput: "KYFGTAKARADFCARDRSELSLKEGDIIKILNKKGQQGWWRGEIYGRVGWFPANYVEEDYS [Y10A]"
  classAssignment: "class 1"
- sequenceInput: "KYFGTAKARYDFCANDRSELSLKEGDIIKILNKKGQQGWWRGEIYGRVGWFPANYVEEDYS [R15N]"
  classAssignment: "class 0"
- sequenceInput: "KYFGTAKARYDFCARDRSELSLKEGDIIKILNKKGQQGWWRGEIYGRVGWFPANYCEEDYS [V56C]"
  classAssignment: "class 0"
- sequenceInput: "KYFGTAKARYDFCARDRSELSLKEGDIIKILNKKGQQGWWRGAIYGRVGWFPANYVEEDYS [E43A]"
  classAssignment: "class 0"
- sequenceInput: "KYFGTAKARYDFCARDRSELSLKEGDIIKILNKKGQQGWWRGEIYSRVGWFPANYVEEDYS [G46S]"
  classAssignment: "class 0"
- sequenceInput: "KYFGTAKARYDFCASDRSELSLKEGDIIKILNKKGQQGWWRGEIYGRVGWFPANYVEEDYS [R15S]"
  classAssignment: "class 0"
- sequenceInput: "KYFGTAKARYDFCARDRSELSLKEGDCIKILNKKGQQGWWRGEIYGRVGWFPANYVEEDYS [I27C]"
  classAssignment: "class 0"
- sequenceInput: "KYFGTAKARYDFCARDRSELSLKEGDIIKGLNKKGQQGWWRGEIYGRVGWFPANYVEEDYS [I30G]"
  classAssignment: "class 0"

Ref: the Human Domainome abundance scans (Beltran et al. 2025)
